- system under test: T1, PDZD7_3, Q9H5P4
- T1 sequence (Q9H5P4 857-944, limits assumed, looked up): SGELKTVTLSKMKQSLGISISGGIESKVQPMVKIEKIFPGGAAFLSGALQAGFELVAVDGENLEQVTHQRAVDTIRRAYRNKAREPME
- assay: holdup assay
- Parameters: key: below the threshold = too weak to quantify, mostly under pKd 3.1 to 4
- experimental setup: plain residues with an end cap or a label only (N-terminal biotin on a linker: ahx)
Decide using pKd: a value greater than or equal to 4 is T, a smaller one is F.

# binder, class
data = [
    ("HTHSYIETHV [CNKSR2, Q8WXI2]", "T"),
    ("QDEKVKESYV [ABCA1, O95477]", "T"),
]

Now examine the next entry.
Exercise: hey, is pKd for this one >= 4? QNTDDVQTSF [ACE2, Q9BYF1]
Solution: F

Each recorded value in this set is attributed to paper PMC9482650.
